test: bioavailability of dextromethorphan after nasal, oral and intravenous administration (plasma levels, spectrofluorophotometric); assay type: in vivo, female beagle dogs; conditions: dog, plasma, iv, 15 mg, dog #1, 12 min, HBr salt 15 mg/dog
readout_kind: concentration at 0.2 h (ng/mL)
Please give a number only; it is taken to be in ng/mL.

What does the data say about its concentration at 0.2 h? Entry: COc1ccc2c(c1)[C@]13CCCC[C@@H]1[C@H](C2)N(C)CC3 [dextromethorphan, d-3-methoxy-N-methylmorphinan]
482

====

test: bioavailability of dextromethorphan after nasal, oral and intravenous administration (plasma levels, spectrofluorophotometric); assay type: in vivo, female beagle dogs; conditions: dog, plasma, iv, 15 mg, dog #3, 55 min, HBr salt 15 mg/dog
readout_kind: concentration at 55 min (ng/mL)
State the answer as a number, implicitly in ng/mL.

Recorded concentration at 55 min of "COc1ccc2c(c1)[C@]13CCCC[C@@H]1[C@H](C2)N(C)CC3" , please.
81.4
